Target: Protein-glutamine gamma-glutamyltransferase K (Homo sapiens)
Assay: Inhibition of human transglutaminase 1 using ((benzyloxy)carbonyl)-L-glutaminyl-L-serine peptide substrate assessed as Kinh/Ki ratio by GDH coupled assay
Hi there, I'd appreciate the recorded Ratio for every entry that follows.

Sample answers from the record:
O=C(N[C@@H]1C[C@@H](C(=O)NC[C@@H]2CC(Br)=NO2)N(C(=O)OCc2cnc3ccccc3c2)C1)c1cccc(O)c1 18.1
O=C(NC[C@@H]1CC(Br)=NO1)[C@@H]1CCCN1C(=O)OCc1cccnc1 4.3

// input: 8 compounds below; output: Ratio for each
1. C[C@H](OC(=O)N1CCC[C@@H]1C(=O)NC[C@@H]1CC(Br)=NO1)c1ccc2ccccc2c1
2. CO[C@@H]1C[C@@H](C(=O)NC[C@@H]2CC(Br)=NO2)N(C(=O)OCc2cnc3ccccc3c2)C1
3. O=C(NC[C@@H]1CC(Br)=NO1)[C@@H]1C[C@@H](c2cccc(O)c2)CN1C(=O)OCc1cnc2ccccc2c1
4. O=C(NC[C@@H]1CC(Br)=NO1)[C@@H]1CCCN1C(=O)OCc1ccccc1
5. O=C(NC[C@@H]1CC(Br)=NO1)[C@@H]1C[C@@H](c2cccc(Cl)c2)CN1C(=O)OCc1cnc2ccccc2c1
6. O=C(NC[C@@H]1CC(Br)=NO1)[C@@H]1C[C@H](F)CN1C(=O)OCc1cnc2ccccc2c1
7. O=C(NC[C@@H]1CC(Br)=NO1)[C@@H]1C[C@@H](c2c[nH]c3ccc(F)cc23)CN1C(=O)OCc1cnc2ccccc2c1
8. O=C(N[C@@H]1C[C@@H](C(=O)NC[C@@H]2CC(Br)=NO2)N(C(=O)OCc2cnc3ccccc3c2)C1)c1ccc(O)cc1

Response:
5.1
7.7
38.7
4.5
41.7
6
48
31.3

// input: 4 compounds below; output: Ratio for each
1. O=C(NC[C@@H]1CC(Br)=NO1)[C@@H]1C[C@@H](NC(=O)C2(C(=O)O)CCC2)CN1C(=O)OCc1cnc2ccccc2c1
2. O=C(NC[C@@H]1CC(Br)=NO1)[C@@H]1C[C@@H](OCc2ccccc2)CN1C(=O)OCc1cnc2ccccc2c1
3. COc1cccc(COC(=O)N2CCC[C@H]2C(=O)NC[C@@H]2CC(Br)=NO2)c1OC
4. O=C(N[C@@H]1C[C@@H](C(=O)NC[C@@H]2CC(Br)=NO2)N(C(=O)OCc2cnc3ccccc3c2)C1)c1ccccc1

Response:
[11.6, 5.8, 1.7, 24.6]

// input: 4 compounds below; output: Ratio for each
1. O=C(N[C@@H]1C[C@@H](C(=O)NC[C@@H]2CC(Br)=NO2)N(C(=O)OCc2cnc3ccccc3c2)C1)c1ccccc1O
2. O=C(NC[C@@H]1CC(Br)=NO1)[C@@H]1C[C@@H](c2ccc(Cl)cc2)CN1C(=O)OCc1cnc2ccccc2c1
3. O=C(NC[C@@H]1CC(Br)=NO1)[C@@H]1C[C@@H](F)CN1C(=O)OCc1cnc2ccccc2c1
4. O=C(NC[C@@H]1CC(Br)=NO1)[C@@H]1CCCCN1C(=O)OCc1cnc2ccccc2c1

Response:
37.1
15.4
6.7
22.2

---

Target: Coagulation factor XIII A chain (Homo sapiens)
Test: Inhibition of human factor 13a using QEQVSPLSLLK peptide substrate assessed as Kinh/Ki ratio by GDH coupled assay
Hi there, I'd appreciate the recorded Ratio for every entry that follows.

O=C(NC[C@@H]1CC(Br)=NO1)[C@@H]1C[C@@H](c2ccc(O)cc2)CN1C(=O)OCc1cnc2ccccc2c1 38.7
O=C(NC[C@@H]1CC(Br)=NO1)[C@@H]1C[C@@H](OCc2ccccc2)CN1C(=O)OCc1cnc2ccccc2c1 15.5
O=C(NC[C@@H]1CC(Br)=NO1)[C@@H]1CCCN1C(=O)OCc1cnc2ccccc2c1 8.3

Prompt: Supply reported Ratio belonging to this compound: O=C(N[C@@H]1C[C@@H](C(=O)NC[C@@H]2CC(Br)=NO2)N(C(=O)OCc2cnc3ccccc3c2)C1)c1ccc(O)cc1
Response: 9.4

---

Biological target: UniProt P21980
Sequence (P21980 whole entry): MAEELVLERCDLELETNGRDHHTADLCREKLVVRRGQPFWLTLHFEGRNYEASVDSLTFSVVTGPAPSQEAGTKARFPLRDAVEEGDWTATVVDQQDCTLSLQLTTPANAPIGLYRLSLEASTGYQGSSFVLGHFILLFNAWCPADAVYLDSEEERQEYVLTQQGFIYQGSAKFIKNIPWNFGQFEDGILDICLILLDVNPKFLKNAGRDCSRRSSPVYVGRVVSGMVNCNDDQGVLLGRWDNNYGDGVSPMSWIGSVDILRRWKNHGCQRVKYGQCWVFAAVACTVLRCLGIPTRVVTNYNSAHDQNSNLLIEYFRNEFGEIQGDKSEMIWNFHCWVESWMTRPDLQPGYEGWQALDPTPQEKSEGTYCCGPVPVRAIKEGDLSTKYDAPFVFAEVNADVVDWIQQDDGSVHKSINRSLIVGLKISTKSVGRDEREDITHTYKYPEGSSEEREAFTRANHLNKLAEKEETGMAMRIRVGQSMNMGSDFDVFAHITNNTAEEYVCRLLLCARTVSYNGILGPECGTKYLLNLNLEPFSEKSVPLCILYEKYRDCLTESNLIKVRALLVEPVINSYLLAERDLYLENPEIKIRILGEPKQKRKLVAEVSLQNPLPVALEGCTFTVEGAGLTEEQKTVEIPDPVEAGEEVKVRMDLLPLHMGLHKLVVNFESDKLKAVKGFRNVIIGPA
Test: Inhibition of human transglutaminase 2 using ((benzyloxy)carbony l)-L-glutaminylglycine peptide substrate assessed as Kinh/Ki ratio by GDH coupled assay
test_readout: Ratio

O=C(N[C@@H]1C[C@@H](C(=O)NC[C@@H]2CC(Br)=NO2)N(C(=O)OCc2cnc3ccccc3c2)C1)c1cnccn1 15.7
O=C(NC[C@@H]1CC(Br)=NO1)[C@@H]1C[C@@H](c2ccc(Cl)cc2)CN1C(=O)OCc1cnc2ccccc2c1 12

// input: 8 compounds below; output: Ratio for each
1. O=C(NC[C@@H]1CC(Br)=NO1)[C@@H]1C[C@H](F)CN1C(=O)OCc1cnc2ccccc2c1
2. O=C(N[C@@H]1C[C@@H](C(=O)NC[C@@H]2CC(Br)=NO2)N(C(=O)OCc2cnc3ccccc3c2)C1)c1ccccc1
3. O=C(NC[C@@H]1CC(Br)=NO1)[C@@H]1CCCN1C(=O)OCc1cccc(OCc2ccccc2)c1
4. O=C(NC[C@@H]1CC(Br)=NO1)[C@@H]1CCCN1C(=O)OCc1cnc2ccccc2n1
5. O=C(NC[C@@H]1CC(Br)=NO1)[C@@H]1C[C@@H](c2ccccc2O)CN1C(=O)OCc1cnc2ccccc2c1
6. O=C(NC[C@@H]1CC(Br)=NO1)[C@@H]1C[C@@H](c2c[nH]c3ccc(F)cc23)CN1C(=O)OCc1cnc2ccccc2c1
7. C#CCO[C@@H]1C[C@@H](C(=O)NC[C@@H]2CC(Br)=NO2)N(C(=O)OCc2cnc3ccccc3c2)C1
8. O=C(NC[C@@H]1CC(Br)=NO1)[C@@H]1C[C@H](c2ccccc2)CN1C(=O)OCc1cnc2ccccc2c1

Response:
[13.4, 25.8, 4.8, 1.6, 33.8, 18.4, 10.1, 17.7]

// input: 4 compounds below; output: Ratio for each
1. O=C(NC[C@@H]1CC(Br)=NO1)[C@@H]1CCCN1C(=O)OCc1cnc2ccccc2c1
2. O=C(NC[C@@H]1CC(Br)=NO1)[C@@H]1C[C@@H](O)CN1C(=O)OCc1cnc2ccccc2c1
3. C[C@@]1(C(=O)NC[C@@H]2CC(Br)=NO2)CCCN1C(=O)OCc1cnc2ccccc2c1
4. C[C@H](OC(=O)N1CCC[C@@H]1C(=O)NC[C@@H]1CC(Br)=NO1)c1ccc2ccccc2c1

Response:
16.9
12.5
2
2.9

---

Assay: Plasma concentration in CD-1 mouse at 50 mg/kg, po after 5 mins
Format: ADME, organism-based
Parameters: dose 50 mg/kg, route oral
Hi there, I'd appreciate the recorded concentration at 5 min for every entry that follows.
Numbers only, in ng/mL.

O=C(NC[C@@H]1CC(Br)=NO1)[C@@H]1CCCN1C(=O)OCc1cnc2ccccc2c1 2100

Prompt: Supply reported concentration at 5 min belonging to this molecule: O=C(NC[C@@H]1CC(Br)=NO1)[C@@H]1C[C@H](F)CN1C(=O)OCc1cnc2ccccc2c1
Response: 2900

---

Molecular target: Protein-glutamine gamma-glutamyltransferase K (Homo sapiens)
Experiment: Inhibition of human transglutaminase 1 using ((benzyloxy)carbonyl)-L-glutaminyl-L-serine peptide substrate assessed as Kinh/Ki ratio by GDH coupled assay
test_readout: Ratio

N[C@@H]1C[C@@H](C(=O)NC[C@@H]2CC(Br)=NO2)N(C(=O)OCc2cnc3ccccc3c2)C1 3.1
O=C(NC[C@@H]1CC(Br)=NO1)[C@@H]1CCCN1C(=O)OCc1cccc(F)c1 5.6
Cn1c(COC(=O)N2CCC[C@H]2C(=O)NC[C@@H]2CC(Br)=NO2)nc2ccccc21 0.85

Please turn your attention to the following entry.
Prompt: Supply reported Ratio belonging to this compound: O=C(NC[C@@H]1CC(Br)=NO1)[C@@H]1CCCN1C(=O)OCc1cnc2ccccc2n1
Response: 15.4

---

Molecular target: Protein-glutamine gamma-glutamyltransferase 2 (Mus musculus) (UniProt P21981)
Sequence (P21981 whole entry): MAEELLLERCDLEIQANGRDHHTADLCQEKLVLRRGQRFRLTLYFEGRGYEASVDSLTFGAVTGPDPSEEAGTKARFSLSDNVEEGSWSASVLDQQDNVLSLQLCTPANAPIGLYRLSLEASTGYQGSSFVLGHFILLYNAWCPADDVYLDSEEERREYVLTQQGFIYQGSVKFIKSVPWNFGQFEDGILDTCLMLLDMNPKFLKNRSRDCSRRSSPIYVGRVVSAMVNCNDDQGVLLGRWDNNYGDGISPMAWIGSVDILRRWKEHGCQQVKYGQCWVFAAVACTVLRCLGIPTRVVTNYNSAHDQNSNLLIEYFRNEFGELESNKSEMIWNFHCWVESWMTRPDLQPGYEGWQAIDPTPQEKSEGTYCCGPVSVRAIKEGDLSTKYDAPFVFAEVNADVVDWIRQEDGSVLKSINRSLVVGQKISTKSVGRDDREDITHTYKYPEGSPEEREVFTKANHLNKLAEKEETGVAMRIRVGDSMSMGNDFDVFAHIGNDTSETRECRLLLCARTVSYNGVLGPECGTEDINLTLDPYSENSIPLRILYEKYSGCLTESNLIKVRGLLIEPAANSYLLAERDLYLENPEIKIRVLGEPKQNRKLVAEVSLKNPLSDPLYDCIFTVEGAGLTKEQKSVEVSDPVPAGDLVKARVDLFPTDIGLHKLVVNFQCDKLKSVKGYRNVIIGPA
Assay: Inhibition of mouse transglutaminase 2 using ((benzyloxy)carbony l)-L-glutaminylglycine peptide substrate assessed as Kinh/Ki ratio by GDH coupled assay
test_readout: Ratio
Answers are plain numbers.

Sample answers from the record:
O=C(NC[C@@H]1CC(Br)=NO1)[C@@H]1C[C@H](F)CN1C(=O)OCc1cnc2ccccc2c1 0.43
O=C(NC[C@@H]1CC(Br)=NO1)[C@@H]1C[C@@H](O)CN1C(=O)OCc1cnc2ccccc2c1 0.5
O=C(NC[C@@H]1CC(Br)=NO1)[C@@H]1CCCN1C(=O)OCc1cnc2ccccc2c1 0.5
O=C(N[C@@H]1C[C@@H](C(=O)NC[C@@H]2CC(Br)=NO2)N(C(=O)OCc2cnc3ccccc3c2)C1)c1ccc(O)cc1 1.3
O=C(NC[C@@H]1CC(Br)=NO1)[C@@H]1C[C@@H](c2ccccc2)CN1C(=O)OCc1cnc2ccccc2c1 1.5

// input: 2 compounds below; output: Ratio for each
1. O=C(NC[C@@H]1CC(Br)=NO1)[C@@H]1C[C@@H](c2ccc(O)cc2)CN1C(=O)OCc1cnc2ccccc2c1
2. O=C(N[C@@H]1C[C@@H](C(=O)NC[C@@H]2CC(Br)=NO2)N(C(=O)OCc2cnc3ccccc3c2)C1)c1cccnc1

Response:
[1.4, 0.68]

Prompt: Supply reported Ratio belonging to this compound: O=C(NC[C@@H]1CC(Br)=NO1)[C@@H]1C[C@@H](OCc2ccccc2)CN1C(=O)OCc1cnc2ccccc2c1
Response: 0.5
